- Target System: human 5-HT1A receptor (Homo sapiens)
- Construct: host or cells: RAT-1 cells, cotransfected with the beta-galactosidase gene
- Sequence (P08908 1-422): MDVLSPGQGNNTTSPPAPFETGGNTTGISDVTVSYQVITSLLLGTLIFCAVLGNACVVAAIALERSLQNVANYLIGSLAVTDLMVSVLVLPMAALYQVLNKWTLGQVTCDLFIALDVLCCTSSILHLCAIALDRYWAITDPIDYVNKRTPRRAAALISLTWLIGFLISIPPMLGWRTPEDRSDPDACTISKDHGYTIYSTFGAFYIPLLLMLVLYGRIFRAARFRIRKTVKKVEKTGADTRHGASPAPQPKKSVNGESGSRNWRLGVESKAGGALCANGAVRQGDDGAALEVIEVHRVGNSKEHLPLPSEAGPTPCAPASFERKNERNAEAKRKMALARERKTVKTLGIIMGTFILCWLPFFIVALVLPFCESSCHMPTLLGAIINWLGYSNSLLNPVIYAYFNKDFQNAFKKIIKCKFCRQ
- Test Details: R-SAT assay, RAT-1 cells expressing the human 5-HT1A receptor, β-galactosidase readout
- Format: cell-based
- Condition Notes: agent 500 nM, 100 nM 5-HT, compared with oleamide
Assay Endpoint: potentiation of the 5-HT1A receptor response (in words)

[
  {
    "Compound": "CCCCC/C=C\\C/C=C\\C/C=C\\C/C=C\\CCCC(=O)NCCO [anandamide, reference compound]",
    "Reported": "found to potentiate"
  },
  {
    "Compound": "CCCCCCCC/C=C\\CCCCCCCC(=O)NCCO [oleyl ethanolamide]",
    "Reported": "found to potentiate"
  }
]

Numbers sourced from patent US6734204B1.
